All values here come from the supplement of paper PMC12645437.

# testSystem: T1, CRBN, Q96SW2;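 further: pooled lentiviral library of zinc finger degron-EGFP fusions in mCherry-positive Jurkat cells, FACS-sorted after compound exposure, with degron abundance counted by next-generation sequencing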
# T1 chain: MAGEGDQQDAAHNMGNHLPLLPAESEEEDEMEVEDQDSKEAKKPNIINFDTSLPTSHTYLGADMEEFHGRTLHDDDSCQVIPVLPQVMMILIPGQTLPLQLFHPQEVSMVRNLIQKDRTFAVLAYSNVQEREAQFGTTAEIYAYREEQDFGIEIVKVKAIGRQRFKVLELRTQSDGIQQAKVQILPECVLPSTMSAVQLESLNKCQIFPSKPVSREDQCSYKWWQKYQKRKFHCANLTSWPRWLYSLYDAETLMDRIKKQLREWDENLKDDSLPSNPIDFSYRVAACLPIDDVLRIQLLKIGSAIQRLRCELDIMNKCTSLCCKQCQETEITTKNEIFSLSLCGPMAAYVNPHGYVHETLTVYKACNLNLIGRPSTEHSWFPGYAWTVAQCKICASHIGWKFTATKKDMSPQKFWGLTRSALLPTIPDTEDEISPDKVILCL
# experiment: log2 fold change of degron read counts, EGFP-low vs EGFP+ sorted cells (limma voom), compound-induced degradation; higher = more compound-induced degradation of the degron-EGFP fusion; degrons are variants of IKZF1/3 zinc finger 2; compound dose not given here
# conditionSummary: Jurkat; 18 h; compound: compound 33 (diphenyl IMiD analogue)
Whole data set: some 8,300 sequences, median “log2 fold change of degron read counts, EGFP-low vs EGFP+ sorted cells (limma voom), compound-induced degradation” near -1.1, cut for the highest 2% near 3.2. The list comes from a sample in which the highest values are over-represented; it also holds close analogues and randomly drawn sequences.
log2 fold change of degron read counts overview

{"columns": ["sequenceString", "log2 fold change of degron read counts"],
 "data": [
  ["FQCDICGAAFTQKGNLLRHIKL [46F_47Q_49D_50I_52G_53A_54A_55F_67L_, Q9UKT9]", 0.983],
  ["FWCDICGAAFTQKGNLLRHIKL [46F_47W_49D_50I_52G_53A_54A_55F_67L_, Q9UKT9]", 1.49],
  ["FVCDICGAAFTQKGNLLRHIKL [46F_47V_49D_50I_52G_53A_54A_55F_67L_, Q9UKT9]", 1.33],
  ["FTCEQCGAQFTQKGNLLRHIKL [46F_47T_49E_50Q_52G_53A_54Q_55F_67L_, Q9UKT9]", 0.532],
  ["FACDICGAAFTQKGNLLRHIKL [46F_47A_49D_50I_52G_53A_54A_55F_67L_, Q9UKT9]", -0.474],
  ["FICDICGAAFTQKGNLLRHIKL [46F_47I_49D_50I_52G_53A_54A_55F_67L_, Q9UKT9]", 1.39],
  ["FCCDICGAAFTQKGNLLRHIKL [46F_47C_49D_50I_52G_53A_54A_55F_67L_, Q9UKT9]", 0.975]
]}
